Source of measurements: ChEMBL document CHEMBL5058577

- Test system: Fibroblast
- Protocol Text: Multiplex assay against human fibroblast
- Type: toxicity, cell-based
- Condition Details: 12 h, 10 µM, compound concentration 10 uM, replicate 2
Readout Label: Population Pyknosed Nuclei (%)
Use % as the unit, but write only the number.

CCc1nn2c(C)cc(C)nc2c1Cc1ccc(-c2nnc(C3CCNCC3)o2)cc1	17
O=C(O)CCC/C=C\CC1C(O)CC(O)C1/C=C/C(O)COc1cccc(Cl)c1 (centres undefined)	34
COC(c1ccccc1)(c1ccccc1)[C@H](Oc1nc(C)cc(C)n1)C(=O)O	34
COc1ccc2[nH]c(I)c(CCNC(C)=O)c2c1	17
CN1CCN2c3ccccc3Cc3ccccc3C2C1.Cl (centres undefined) [MIANSERIN HYDROCHLORIDE]	27

Now for another entry.
Problem: Input CN1CCN(c2ccc(Nc3c4ccccc4nc4ccccc34)cc2)CC1.Cl.Cl.O , output reported Population Pyknosed Nuclei (%).
Solution: 4
